System: 282377-053-R-J1-PDC complex spheroid viability
Experiment Summary: Anticancer human tumor 282377-053-R-J1-PDC patient-derived colon adenocarcinoma cell line growth inhibition [POLQ]
Particulars: second compound 1 µM; first compound 1 µM; active compounds read low
Attribute Measured: viability, T/C (%)
One number for each entry, in %.

Some molecules with recorded viability, T/C:
Molecule	Attribute Measured	Experimental Value
CCc1cc2c(N3CCc4c(cc(Cn5ccnc5)cc4-c4cn(C)nc4C(F)(F)F)C3=O)ccnc2c(OC)n1 + Nc1ccc(C#CCN(C(=O)Cc2ncc(C(F)(F)F)cc2C(F)(F)F)c2ccc(F)cc2)nn1	viability, T/C	90.5
O=C(c1cc(Cc2n[nH]c(=O)c3ccccc23)ccc1F)N1CCN(C(=O)C2CC2)CC1 + Nc1ccc(C#CCN(C(=O)Cc2ncc(C(F)(F)F)cc2C(F)(F)F)c2ccc(F)cc2)nn1	viability, T/C	110
CCCS(=O)(=O)Nc1ccc(F)c(C(=O)c2c[nH]c3ncc(-c4ccc(Cl)cc4)cc23)c1F + Nc1ccc(C#CCN(C(=O)Cc2ncc(C(F)(F)F)cc2C(F)(F)F)c2ccc(F)cc2)nn1	viability, T/C	62.4

# context switch: different molecule, same viability, T/C
Any idea what viability, T/C was measured for C=CCn1c(=O)c2cnc(Nc3ccc(N4CCN(C)CC4)cc3)nc2n1-c1cccc(C(C)(C)O)n1 + Nc1ccc(C#CCN(C(=O)Cc2ncc(C(F)(F)F)cc2C(F)(F)F)c2ccc(F)cc2)nn1 ? 67.6

###

What viability, T/C was measured for each of the following?
Tested on: 282377-053-R-J1-PDC complex spheroid viability
Experiment Summary: Anticancer human tumor 282377-053-R-J1-PDC cell line growth inhibition [POLQ];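 further: spheroids exposed to compounds for seven days; 100% = DMSO vehicle control viability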
Particulars: second compound 0.316 µM; first compound 0.1 µM; active compounds read low
Answers are plain numbers, in %.

Some compounds with recorded viability, T/C:
Compound	Study System	Experimental Value
COc1cc(C2c3cc4c(cc3C(OC3OC5COC(C)OC5C(O)C3O)C3COC(=O)C23)OCO4)cc(OC)c1O (centres undefined) + COC1C(OC(N)=O)C(O)C(Oc2ccc3c(O)c(NC(=O)c4ccc(O)c(CC=C(C)C)c4)c(=O)oc3c2C)OC1(C)C	282377-053-R-J1-PDC complex spheroid viability	80.1
COc1cccc2c1C(=O)c1c(O)c3c(c(O)c1C2=O)CC(O)(C(=O)CO)CC3OC1CC(N)C(O)C(C)O1 (centres undefined) + COC1C(OC(N)=O)C(O)C(Oc2ccc3c(O)c(NC(=O)c4ccc(O)c(CC=C(C)C)c4)c(=O)oc3c2C)OC1(C)C	282377-053-R-J1-PDC complex spheroid viability	84.9
CCc1cc2c(N3CCc4c(cc(Cn5ccnc5)cc4-c4cn(C)nc4C(F)(F)F)C3=O)ccnc2c(OC)n1 + COC1C(OC(N)=O)C(O)C(Oc2ccc3c(O)c(NC(=O)c4ccc(O)c(CC=C(C)C)c4)c(=O)oc3c2C)OC1(C)C	282377-053-R-J1-PDC complex spheroid viability	110

# context switch: different compound, same viability, T/C
Any idea what viability, T/C was measured for CCCS(=O)(=O)Nc1ccc(F)c(C(=O)c2c[nH]c3ncc(-c4ccc(Cl)cc4)cc23)c1F + COC1C(OC(N)=O)C(O)C(Oc2ccc3c(O)c(NC(=O)c4ccc(O)c(CC=C(C)C)c4)c(=O)oc3c2C)OC1(C)C ? 65.5
